tested on: HCC1599; assay: normalised viability (% of control), CellTiter-Blue; higher = more viable cells (about 100 = DMSO control); details: 1000 nM; incubation time: 72 h
TEST_READOUT: normalised viability (%)

| COMPOUND | RECORDED_NUMBER |
| --- | --- |
| Cc1c(N)nc([C@H](CC(N)=O)NC[C@H](N)C(N)=O)nc1C(=O)N[C@H](C(=O)N[C@H](C)[C@@H](O)[C@H](C)C(=O)N[C@H](C(=O)NCCc1nc(-c2nc(C(=O)NCCC[S+](C)C)cs2)cs1)[C@@H](C)O)[C@@H](OC1OC(CO)C(O)C(O)C1OC1OC(CO)C(O)C(OC(N)=O)C1O)c1cnc[nH]1 (some centres undefined) [Bleomycin] | 112 |
| Nc1nc(Cl)nc2c1ncn2[C@@H]1O[C@H](CO)[C@@H](O)[C@@H]1F [Clofarabine] | 87.5 |
| Cc1c(C(=O)Nc2ccc(N3C[C@@H](C)O[C@@H](C)C3)nc2)cccc1-c1ccc(OC(F)(F)F)cc1 [NVP-LDE225] | 90.5 |
| NC(=O)c1cccc2cn(-c3ccc([C@@H]4CCCNC4)cc3)nc12 [MK-4827] | 116 |

----------
This listing pairs molecules with measured EC50, CellTiter-Glo.
tested on: CAL-120; conditions: 72 h

| SMILES_REPRESENTATION | TESTED_SYSTEM | EC50, CellTiter-Glo |
| --- | --- | --- |
| CC[C@H](CC#N)OC(=O)N[C@@H](C)c1cccc(NC(=O)Nc2ccc(-c3cnco3)c(OC)c2)c1 | CAL-120 | 376 nM |
| COc1cc(Nc2ncc(F)c(Nc3ccc4c(n3)N(COP(=O)(O)O)C(=O)C(C)(C)O4)n2)cc(OC)c1OC | CAL-120 | 405 nM |
| CC[C@@H]1C(=O)N(C)c2cnc(Nc3ccc(C(=O)N[C@H]4CC[C@H](N5CCN(CC6CC6)CC5)CC4)cc3OC)nc2N1C(C)C | CAL-120 | 46.6 nM |
| CC(C)NC[C@@H](C(=O)N1CCN(c2ncnc3c2[C@H](C)C[C@H]3O)CC1)c1ccc(Cl)cc1 | CAL-120 | 819 nM |
| COc1cc2c(cc1-c1c(C)noc1C)ncc1[nH]c(=O)n([C@H](C)c3ccccn3)c12 | CAL-120 | 574 nM |

----------
This listing pairs compounds with measured normalised response.
tested on: MDA-MB-231; test: normalised response (% of control), CellTiter-Glo; higher = more viable cells (100 = DMSO, 0 = benzethonium chloride kill control); conditions: incubation time: 72 h

| COMPOUND | normalised response [%] |
| --- | --- |
| CN1CCc2c(c3ccccc3n2Cc2ccc(C(=O)NO)cc2)C1 [Tubastatin A] (10000 nM) | 72 |
| CC[C@@H]1C(=O)N(C)c2cnc(Nc3ccc(C(=O)N[C@H]4CC[C@H](N5CCN(CC6CC6)CC5)CC4)cc3OC)nc2N1C(C)C [Volasertib] (1000 nM) | 73 |
| Cc1c(C(=O)Nc2ccc(N3C[C@@H](C)O[C@@H](C)C3)nc2)cccc1-c1ccc(OC(F)(F)F)cc1 [Erismodegib] (10000 nM) | 79 |
| Cn1cc(C[C@@H](N)C(=O)O)c2ccccc21 [1-methyl-D-tryptophan] (5000 nM) | 95.7 |
